target-desc: IRAK4 (Homo sapiens (Human))
test-protocol: IRAK4 Degradation HiBiT Assay
condition-summary: read-out: Cellular IRAK4 HiBiT: DC50; Table 5; multiple runs; HiBiT-tagged Jurkat cells, 4 hrs
Sequence (Q9NWZ3 whole entry): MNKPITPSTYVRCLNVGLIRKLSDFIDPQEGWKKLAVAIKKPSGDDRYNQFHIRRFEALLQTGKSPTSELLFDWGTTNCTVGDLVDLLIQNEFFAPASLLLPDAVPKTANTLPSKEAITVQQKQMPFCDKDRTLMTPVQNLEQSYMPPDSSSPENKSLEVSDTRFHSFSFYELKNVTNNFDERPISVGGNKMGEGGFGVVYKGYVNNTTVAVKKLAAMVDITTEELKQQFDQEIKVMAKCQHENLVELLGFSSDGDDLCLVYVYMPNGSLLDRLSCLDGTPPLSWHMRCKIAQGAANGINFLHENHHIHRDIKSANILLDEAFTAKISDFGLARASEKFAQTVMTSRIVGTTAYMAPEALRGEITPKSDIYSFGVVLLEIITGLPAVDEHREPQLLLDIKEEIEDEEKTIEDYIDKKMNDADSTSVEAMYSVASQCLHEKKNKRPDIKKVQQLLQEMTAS
observable: DC50 (nM)

>  <compound>
CNc1cc(-c2ccc3cc(C#N)cnn23)ncc1-c1nnc(C23CCC(NC(=O)C4CN(C5CCN(c6ccc7c(c6)C(=O)N(C6CCC(=O)NC6=O)C7=O)CC5)C4)(CC2)CC3)s1 (centres unmarked) [Example 103]

>  <reading-unit>
nM

>  <assay-result>
73.3

$$$$

P. CNc1cc(-c2ccc3cc(C#N)cnn23)ncc1-c1nnc([C@H]2C[C@H](NC(=O)C[C@H](NC(=O)[C@@H]3C[C@@H](O)CN3C(=O)[C@@H](NC(=O)C3(F)CC3)C(C)(C)C)c3ccc(-c4scnc4C)cc3)C2)s1 [Example 183]
Q. CNc1cc(-c2ccc3cc(C#N)cnn23)ncc1-c1nnc([C@H]2CC[C@H](NC(=O)CCCCC(=O)N[C@H](C(=O)N3C[C@H](O)C[C@H]3C(=O)N[C@@H](C)c3ccc(-c4scnc4C)cc3)C(C)(C)C)CC2)s1 [Example 57]
R. CNc1cc(-c2ccc3cc(C#N)cnn23)ncc1-c1nnc([C@H]2CC[C@H](NC(=O)CCOCCC(=O)N[C@H](C(=O)N3C[C@H](O)C[C@H]3C(=O)N[C@@H](C)c3ccc(-c4scnc4C)cc3)C(C)(C)C)CC2)s1 [Example 61]
S. CNc1cc(-c2ccc3cc(C#N)cnn23)ncc1-c1nnc([C@H]2CC[C@H](N(C)C[C@@H]3CCN(c4ccc5c(c4)C(=O)N(C4CCC(=O)NC4=O)C5=O)C3)CC2)s1 (some centres unmarked) [Example 171]
# input Parameters: sort_field (DC50), sort_dir (desc). As an answer, provide the labels arranged in the order called for.
# output R, P, Q, S
(R: 399 nM, P: 222 nM, Q: 81.4 nM, S: 12.9 nM)

###

target-desc: IRAK4 (Homo sapiens (Human))
test-protocol: IRAK4 Biochemical HTRF Kinase Assay
condition-summary: Table 5; multiple runs; read-out: IRAK4 HTRF biochemical: IC50
Sequence (Q9NWZ3 whole entry, species assumed): as the sequence (Q9NWZ3 whole entry) above
observable: IC50 (nM)

Solved cases (5 shown):
>  <compound>
CNc1cc(-c2ccc3cc(C#N)cnn23)ncc1-c1nnc([C@H]2CC[C@H](NC(=O)CC(C)(C)C(=O)N[C@H](C(=O)N3C[C@H](O)C[C@H]3C(=O)N[C@@H](C)c3ccc(-c4scnc4C)cc3)C(C)(C)C)CC2)s1 [Example 154]

>  <observable>
IC50

>  <reading-unit>
nM

>  <assay-result>
2.8

$$$$
>  <compound>
CNc1cc(-c2ccc3cc(C#N)cnn23)ncc1-c1nnc([C@H]2CC[C@H](NC(=O)CCCCCC(=O)N[C@H](C(=O)N3C[C@H](O)C[C@H]3C(=O)N[C@@H](C)c3ccc(-c4scnc4C)cc3)C(C)(C)C)CC2)s1 [Example 62]

>  <observable>
IC50

>  <reading-unit>
nM

>  <assay-result>
1.5

$$$$
>  <compound>
CNc1cc(-c2ccc3cc(C#N)cnn23)ncc1-c1nnc(N2CCN(C3CCN(C(=O)c4ccc(C(=O)NC5CCC(=O)NC5=O)cc4)CC3)CC2)s1 (centres unmarked) [Example 132]

>  <observable>
IC50

>  <reading-unit>
nM

>  <assay-result>
0.6

$$$$
>  <compound>
Cc1ncsc1-c1ccc(CNC(=O)[C@@H]2C[C@@H](O)CN2C(=O)C(NC(=O)[C@H]2CC[C@H](C(=O)N3CCN(c4nnc(-c5cnc(-c6ccc7cc(C#N)cnn67)cc5NC(C)C)s4)CC3)CC2)C(C)(C)C)cc1 (some centres unmarked) [Example 45]

>  <observable>
IC50

>  <reading-unit>
nM

>  <assay-result>
19

$$$$
>  <compound>
CC(C)Nc1cc(-c2ccc3cc(C#N)cnn23)ncc1-c1nnc(N2CCN(CCCCc3ccc4c(c3)CN(C3CCC(=O)NC3=O)C4=O)CC2)s1 (centres unmarked) [Example 26]

>  <observable>
IC50

>  <reading-unit>
nM

>  <assay-result>
0.9

$$$$

a. CNc1cc(-c2ccc3cc(C#N)cnn23)ncc1-c1nnc(N2CCCC3(CN(Cc4ccc5c(c4)CN(C4CCC(=O)NC4=O)C5=O)C3)C2)s1 (centres unmarked) [Example 123]
b. CNc1cc(-c2ccc3cc(C#N)cnn23)ncc1-c1nnc(N2CC3(CCN(CC4CCN(c5ccc(C(=O)NC6CCC(=O)NC6=O)cc5)CC4)CC3)C2)s1 (centres unmarked) [Example 182]
# input Would you let me know which has the greater IC50 value, a or b ? Please reply using the label of the selected record.
# output a
(a: 2.1 nM, b: 0.5 nM)
